System: CIT
Conditions: concentration: 1 μM,replicates: in singlicate; n = 1;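 also: KINOMEscan kinase panel screen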
Let's look at some molecules and their measured %Inh.

MOLECULE: O=C(Nc1cccc(C(F)(F)F)c1)c1cccc(Oc2ccc3nccn3n2)c1
ASSAY TARGET: CIT
%Inh [%]: 13

MOLECULE: Cc1ccn2nc(-c3ccc(F)cc3)c(-c3ccncc3)c2c1.Cl
ASSAY TARGET: CIT
%Inh [%]: 100

MOLECULE: CNC(=O)c1ccccc1Nc1nc(Nc2cccc(CS(C)(=O)=O)c2)ncc1C.O=CO
ASSAY TARGET: CIT
%Inh [%]: 45

MOLECULE: COc1cc2ncn(-c3cc(OCC4CCCCC4)c(C(N)=O)s3)c2cc1OC
ASSAY TARGET: CIT
%Inh [%]: 10

MOLECULE: O=C(Nc1cccc(Oc2ccc3nccn3n2)c1)Nc1cccc(C(F)(F)F)c1
ASSAY TARGET: CIT
%Inh [%]: 99.9

MOLECULE: COc1cccc(CNC(=O)NC2CCN(c3ccnc(Nc4cc(OC)c(OC)c(OC)c4)n3)C2)c1 (stereo not drawn)
ASSAY TARGET: CIT
%Inh [%]: 28

MOLECULE: CCN1CCN(CCCC(=O)Nc2n[nH]c3nc(-c4ccc(O)cc4)c(Br)cc23)CC1
ASSAY TARGET: CIT
%Inh [%]: 63

MOLECULE: Cn1cc(-c2cccc3c(N)c(C(N)=O)nnc23)cn1
ASSAY TARGET: CIT
%Inh [%]: 10

MOLECULE: CC(C(=O)NC1CCN(c2ccnc(Nc3ccc(F)cc3)n2)C1)c1ccc(Cl)cc1 (stereo not drawn)
ASSAY TARGET: CIT
%Inh [%]: 28

###

System: CDKL1
Conditions: concentration: 1 μM,replicates: in singlicate; n = 1

COMPOUND: CS(=O)(=O)c1cccc(CNc2nc(Nc3ccc4c(c3)[C@@H]3C[C@@H]4CNC3=O)ncc2C(F)(F)F)c1
ASSAY TARGET: CDKL1
UNIT INFO: %
%Inh: 71
//
COMPOUND: Cl.Cl.NC[C@H](CC1CCCCC1)NC(=O)c1ccc(-c2ccnc3[nH]ccc23)s1 [GSK1581428]
ASSAY TARGET: CDKL1
UNIT INFO: %
%Inh: 23
//
COMPOUND: CNC(=O)c1ccccc1Nc1nc(Nc2cccc(CS(C)(=O)=O)c2)ncc1C.O=CO [GSK1520489]
ASSAY TARGET: CDKL1
UNIT INFO: %
%Inh: 28
//
COMPOUND: COc1cccc(CNC(=O)NC2CCN(c3ccnc(Nc4cc(OC)c(OC)c(OC)c4)n3)C2)c1 (stereo not shown) [GSK1379765]
ASSAY TARGET: CDKL1
UNIT INFO: %
%Inh: 13

###

Tested on: SRPK3
Conditions: concentration: 1 μM,replicates: in singlicate; n = 1

COMPOUND: Cc1nnc(-c2ccc3occ(-c4ccc(S(C)=O)cc4)c3n2)o1 (centres unmarked)
UNIT INFO: %
%Inh: 0
--
COMPOUND: O=C(Nc1cccc(C(F)(F)F)c1)c1cccc(Oc2ccc3nccn3n2)c1
UNIT INFO: %
%Inh: 4
--
COMPOUND: CS(=O)c1ccc(-c2coc3ccc(-c4n[nH]c(=O)o4)cc23)cc1 (centres unmarked)
UNIT INFO: %
%Inh: 0
--
COMPOUND: CN(c1ccccc1CNc1nc(Nc2ccc3c(c2)CC(=O)N3)ncc1C(F)(F)F)S(C)(=O)=O
UNIT INFO: %
%Inh: 39
--
COMPOUND: C[C@@H](Oc1cc(-n2cnc3ccc(-c4ccncc4)cc32)sc1C(N)=O)c1ccccc1Cl [GSK483724]
UNIT INFO: %
%Inh: 25
--
COMPOUND: COc1cc2ncn(-c3cc(OCC4CCCCC4)c(C(N)=O)s3)c2cc1OC [GSK204559]
UNIT INFO: %
%Inh: 31
--
COMPOUND: O=C(NOCC1CC1)c1cc(Br)c(F)c(F)c1Nc1ccc(I)cc1Cl
UNIT INFO: %
%Inh: 0
--
COMPOUND: COC(=O)Nc1nc2cc(Oc3ccc(NC(=O)Nc4cc(C(F)(F)F)ccc4Cl)cc3)ccc2[nH]1.Cl [GW697465]
UNIT INFO: %
%Inh: 3
--
COMPOUND: CCNCC(Cc1ccccc1)NC(=O)c1cc(Br)c(-c2ccnc3[nH]ccc23)s1.Cl.Cl (centres unmarked) [GSK1383280]
UNIT INFO: %
%Inh: 0
--
COMPOUND: C[C@@H]1CNc2c(sc3ccc4nc(-c5ccc(O)cc5)ccc4c23)C(=O)N1
UNIT INFO: %
%Inh: 24
--
COMPOUND: Cc1ccc2c(-c3ccnc(Nc4ccc(C(F)(F)F)cc4)n3)cnn2n1 [GW819776]
UNIT INFO: %
%Inh: 26
--
COMPOUND: COc1ccc(Nc2nccc(N3CCC(NC(=O)c4cccc(C#N)c4)C3)n2)cc1 (centres unmarked) [GSK1379730]
UNIT INFO: %
%Inh: 0
--
COMPOUND: Cc1n[nH]c2cc(Nc3ccnc(Nc4cccc(CN5CCOCC5)c4)n3)ccc12 [GW682569]
UNIT INFO: %
%Inh: 65
--
COMPOUND: CCn1c(-c2nonc2N)nc2cncc(CNC3CCNCC3)c21.Cl [SB-747651]
UNIT INFO: %
%Inh: 0
--
COMPOUND: CN(c1ccc2c(c1)nc(NCc1ccc(F)cc1)n2C)c1ccnc(Nc2ccc(CS(C)(=O)=O)cc2)n1.Cl [GW813244]
UNIT INFO: %
%Inh: 67
--
COMPOUND: COc1cccc(C2=C(Nc3cccc(Cl)c3)C(=O)NC2=O)c1 [SB-341556]
UNIT INFO: %
%Inh: 24
--
COMPOUND: O=C(Nc1ccccc1)c1cccc(Oc2ccc3nccn3n2)c1
UNIT INFO: %
%Inh: 0
--
COMPOUND: COC(=O)c1cccc(NC(=O)NC2CCN(c3ccnc(Nc4cc(OC)c(OC)c(OC)c4)n3)C2)c1 (centres unmarked) [GSK1379767]
UNIT INFO: %
%Inh: 4
--
COMPOUND: FC(F)(F)c1cc(Br)cc(Nc2nccc(-c3cnn4ncccc34)n2)c1 [GW810578]
UNIT INFO: %
%Inh: 0
--
COMPOUND: CCOC(=O)N1CCC(n2cnc(-c3ccc(F)cc3)c2-c2ccnc(N)n2)CC1 [SB-219952]
UNIT INFO: %
%Inh: 28
--
COMPOUND: CCn1c(-c2nonc2N)nc2cncc(Br)c21 [SB-738004]
UNIT INFO: %
%Inh: 0
--
COMPOUND: CS(=O)(=O)c1cccc(CNc2nc(Nc3ccc4c(c3)[C@@H]3C[C@@H]4CNC3=O)ncc2C(F)(F)F)c1
UNIT INFO: %
%Inh: 49
--
COMPOUND: N#Cc1cccc(C(=O)NC2CCN(c3ccnc(Nc4ccc(F)cc4)n3)C2)c1 (centres unmarked) [GSK1379708]
UNIT INFO: %
%Inh: 0
--
COMPOUND: CN1CCN(CCCNc2nccc(-c3c(-c4ccc(F)cc4)nn4cc(C(N)=O)ccc34)n2)CC1 [GW622475]
UNIT INFO: %
%Inh: 1
--
COMPOUND: C[C@@H]1CCN(C(=O)N2CCCC2)C[C@@H]1N(C)c1ncnc2[nH]ccc12
UNIT INFO: %
%Inh: 14
--
COMPOUND: O=C(Nc1ccc(Oc2ccc3nc(NC(=O)C4CC4)cn3n2)c(F)c1)c1cccn(-c2ccccc2)c1=O
UNIT INFO: %
%Inh: 24
--
COMPOUND: Cl.Cl.NC[C@H](CC1CCCCC1)NC(=O)c1ccc(-c2ccnc3[nH]ccc23)s1 [GSK1581428]
UNIT INFO: %
%Inh: 91.6
--
COMPOUND: Cc1ccn2nc(-c3ccc(F)cc3)c(-c3ccncc3)c2c1.Cl [GW457859]
UNIT INFO: %
%Inh: 0
--
COMPOUND: Cn1ccc2ncnc(Oc3ccc(NC(=O)Nc4cccc(C(F)(F)F)c4)c(Cl)c3)c21
UNIT INFO: %
%Inh: 0
--
COMPOUND: CC(C(=O)NC1CCN(c2ccnc(Nc3ccc(F)cc3)n2)C1)c1ccc(Cl)cc1 (centres unmarked) [GSK1379713]
UNIT INFO: %
%Inh: 18
--
COMPOUND: c1ccc(Oc2ccc(Nc3ccnc4ccc(-c5ccccn5)cc34)cc2)cc1 [GW407034]
UNIT INFO: %
%Inh: 17
--
COMPOUND: Cc1cccc2c(-c3ccncc3)c(-c3ccc(F)cc3)nn12.Cl [GW461487]
UNIT INFO: %
%Inh: 100
--
COMPOUND: Cl.c1ccc(Oc2ccc(Nc3ccnc4cc(-c5ccc(CN6CCNCC6)o5)ccc34)cc2)nc1 [GW567142]
UNIT INFO: %
%Inh: 0
--
COMPOUND: CN(c1cccc(CNc2nc(Nc3ccc4c(c3)CC(=O)N4)ncc2C(F)(F)F)c1)S(C)(=O)=O
UNIT INFO: %
%Inh: 31
--
COMPOUND: CC(=O)Nc1ccc(-c2cc3ncnc(SCC(=O)O)c3s2)cc1
UNIT INFO: %
%Inh: 13

The values you see were collected from paper PMC5540273.
